- System: Vitamin D3 receptor (Homo sapiens, UniProt P11473)
- Sequence (P11473 whole entry, the tested form may be a part): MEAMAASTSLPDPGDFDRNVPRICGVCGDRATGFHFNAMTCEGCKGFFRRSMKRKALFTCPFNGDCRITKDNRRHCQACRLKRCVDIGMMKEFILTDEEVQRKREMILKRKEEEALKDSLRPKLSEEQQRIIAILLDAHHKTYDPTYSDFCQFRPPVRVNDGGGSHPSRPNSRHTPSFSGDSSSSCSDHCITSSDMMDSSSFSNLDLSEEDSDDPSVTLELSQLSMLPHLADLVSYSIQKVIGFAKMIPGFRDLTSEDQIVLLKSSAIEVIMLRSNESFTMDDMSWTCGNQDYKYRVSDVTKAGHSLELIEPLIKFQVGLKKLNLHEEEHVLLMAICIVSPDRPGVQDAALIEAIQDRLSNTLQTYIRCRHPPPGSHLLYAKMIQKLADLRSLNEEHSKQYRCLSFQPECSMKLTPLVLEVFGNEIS
- Test description: Inhibition of human recombinant GAL4N-fused VDR LBD expressed in HEK293 cells using 1,25(OH)2D3 as substrate assessed as inhibition of cofactor interaction after 16 to 18 hrs by luciferase reporter gene assay
Parameter: IC50. Scope: all listed entries.
Reported metric: IC50

CC(C)CCN1Cc2cc(-c3ccc(C(=O)O)cc3)c(N)cc2N[C@@H](CC(C)C)C1=O > 30 µM
C=C(CC)c1ccc2c(c1)CN(CCC(C)C)C(=O)[C@H](CC(C)C)N2 > 30 µM
CC(C)CCN1Cc2cc(I)ccc2N[C@@H](CC(C)C)C1=O > 30 µM
CC(C)=Cc1cc2c(cc1N)N[C@@H](CC(C)C)C(=O)N(CCC(C)C)C2 26 µM
CC(C)CCN1Cc2cc(I)c(N)cc2N[C@@H](CC(C)C)C1=O 30 µM
CCCCCc1cc2c(cc1N)N[C@@H](CC(C)C)C(=O)N(CCC(C)C)C2 > 30 µM
CC/C=C/c1cc2c(cc1N)N[C@@H](CC(C)C)C(=O)N(CCC(C)C)C2 > 30 µM
CCOC(=O)c1ccc(-c2cc3c(cc2N)N[C@@H](CC(C)C)C(=O)N(CCC(C)C)C3)cc1 14 µM
CC(C)CCN1Cc2cc(/C=C/CO)ccc2N[C@@H](CC(C)C)C1=O > 30 µM
CC(C)CCN1Cc2ccc(N)cc2N[C@@H](CC(C)C)C1=O > 30 µM
CCCCc1cc2c(cc1N)N[C@@H](CC(C)C)C(=O)N(CCC(C)C)C2 25 µM
CC(C)CCN1Cc2ccccc2N[C@@H](CC(C)C)C1=O > 30 µM
CC(C)CCN1Cc2cc(CC(C)C)ccc2N[C@@H](CC(C)C)C1=O > 30 µM
CC(C)CCN1Cc2cc(-c3ccccc3)c(N)cc2N[C@@H](CC(C)C)C1=O 24 µM
CCOC(=O)c1ccc(-c2cc3c(cc2N)N[C@@H](CC(C)C)C(=O)N(CCC(C)C)C3)c(OCCO)c1 20 µM
CC(C)CCN1Cc2cc(CCCO)ccc2N[C@@H](CC(C)C)C1=O > 30 µM
CC(C)CCN1Cc2cc(/C=C/CCO)ccc2N[C@@H](CC(C)C)C1=O > 30 µM
